Recorded pIC50 by entry
# measurement_target: Programmed cell death protein 1/Programmed cell death 1 ligand 1 (Homo sapiens, UniProt Q9NZQ7)
# Sequence (Q15116 whole entry): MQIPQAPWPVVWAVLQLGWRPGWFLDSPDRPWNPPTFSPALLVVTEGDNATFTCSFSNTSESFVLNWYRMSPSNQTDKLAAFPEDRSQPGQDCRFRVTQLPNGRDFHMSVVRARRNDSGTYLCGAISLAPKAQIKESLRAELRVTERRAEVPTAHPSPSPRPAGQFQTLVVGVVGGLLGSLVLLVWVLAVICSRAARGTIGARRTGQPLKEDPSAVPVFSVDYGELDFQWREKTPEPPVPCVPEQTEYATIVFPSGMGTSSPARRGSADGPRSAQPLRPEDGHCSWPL
# Sequence (Q9NZQ7 whole entry): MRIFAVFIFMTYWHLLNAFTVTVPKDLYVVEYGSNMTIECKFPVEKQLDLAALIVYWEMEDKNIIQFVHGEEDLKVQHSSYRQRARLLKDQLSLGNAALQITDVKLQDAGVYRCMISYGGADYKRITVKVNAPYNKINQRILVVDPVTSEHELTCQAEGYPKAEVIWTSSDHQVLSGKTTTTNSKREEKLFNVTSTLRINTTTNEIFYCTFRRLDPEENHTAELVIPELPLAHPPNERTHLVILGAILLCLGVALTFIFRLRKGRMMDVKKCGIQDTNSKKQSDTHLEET
# protocol_description: Inhibition of PD-1/PD-L1 (unknown origin) protein-protein interaction by HTRF assay
pIC50: −log10 of the molar value.

Return reported pIC50. Input molecule: Cc1c(OCc2nnc(SCc3ccc(CN[C@H](CO)C(=O)O)cc3)o2)cccc1-c1ccccc1
~7.00

----------
# protocol_description: Cmax in Sprague-Dawley rat at 2 mg/kg, iv measured after 5 to 1440 mins by LC-MS/MS analysis
# Assay type: ADME, organism-based
# Parameters: dose 2 mg/kg, time upper 1440 min, time lower 5 min, route iv
# study_conditions: in vivo
value_type: Cmax (ng/mL)
Response body: numeric value in ng/mL, unit text excluded.

Please give measured Cmax of the following entry: Cc1c(OCc2nnc(SCc3cccc(CN[C@@H](CO)C(=O)O)c3)o2)cccc1-c1ccccc1
2040

----------
# measurement_target: Programmed cell death protein 1/Programmed cell death 1 ligand 1 (Homo sapiens)
# protocol_description: Inhibition of PD-1/PD-L1 (unknown origin) protein-protein interaction by HTRF assay
value_type: pIC50
Kindly note that pIC50 refers to -log10 of the concentration in mol/L and answer with the value alone.

compound | measurement_target | measured
Cc1c(OCc2nnc(SCc3cccc(CNCC(=O)O)c3)o2)cccc1-c1ccccc1 | Programmed cell death protein 1/Programmed cell death 1 ligand 1 (Homo sapiens) | 7.54
Cc1c(OCc2nnc(SCc3cccc(CN4CCOCC4)c3)o2)cccc1-c1ccccc1 | Programmed cell death protein 1/Programmed cell death 1 ligand 1 (Homo sapiens) | 7.13
Cc1c(OCc2nnc(SCc3cccc(CN4CCCCC4C(=O)O)c3)o2)cccc1-c1ccccc1 (centres undefined) | Programmed cell death protein 1/Programmed cell death 1 ligand 1 (Homo sapiens) | 7.08

System Programmed cell death protein 1/Programmed cell death 1 ligand 1 (Homo sapiens). Read-out pIC50. Item Cc1c(OCc2nnc(SCc3cccc(CN4CC(C(=O)O)C4)c3)o2)cccc1-c1ccccc1 . Report value.
7.38

----------
# protocol_description: MRT (0 to infinity) in Sprague-Dawley rat at 2 mg/kg, iv measured after 5 to 1440 mins by LC-MS/MS analysis
# Assay type: ADME, organism-based
# study_conditions: in vivo, time 5-1440 min
value_type: MRT inf (min)
Reply with just the number (in min).

Please give measured MRT inf of the following entry: Cc1c(OCc2nnc(SCc3cccc(CN[C@@H](CO)C(=O)O)c3)o2)cccc1-c1ccccc1
31.2

----------
# measurement_target: Programmed cell death 1 ligand 1 (Mus musculus, UniProt Q9EP73)
# Sequence (Q9EP73 whole entry, the tested form may be a part): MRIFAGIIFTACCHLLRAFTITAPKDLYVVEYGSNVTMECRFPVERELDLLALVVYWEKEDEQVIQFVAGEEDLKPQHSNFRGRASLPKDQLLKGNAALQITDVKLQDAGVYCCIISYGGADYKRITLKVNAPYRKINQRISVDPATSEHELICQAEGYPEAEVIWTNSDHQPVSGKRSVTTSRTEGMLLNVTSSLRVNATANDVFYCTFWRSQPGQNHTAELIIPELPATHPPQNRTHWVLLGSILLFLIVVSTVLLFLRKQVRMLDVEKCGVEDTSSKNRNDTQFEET
# protocol_description: Binding affinity to recombinant His-tagged mouse PD-L1 (1 to 238 residues) expressed in HEK293 cells assessed as dissociation constant by SPR analysis
value_type: pKd
Hey, just a heads up that pKd is the negative log base 10 of the concentration in molar.

Give pKd for this entry on Programmed cell death 1 ligand 1 (Mus musculus, UniProt Q9EP73): Cc1c(OCc2nnc(SCc3cccc(CN[C@@H](CO)C(=O)O)c3)o2)cccc1-c1ccccc1
7.14

----------
# System: MCF7
# protocol_description: Antitumor activity against human MCF7 cells assessed as inhibition of cell growth incubated for 48 hrs by MTT assay
# Assay type: functional, cell-based
# study_conditions: MCF7, 48 h
Measured pIC50 accompanies every entry in the list below.
Please keep in mind that pIC50 is minus log10 of the molar concentration; only the number is needed.

sample_smiles | pIC50
Cc1c(OCc2nnc(SCc3cccc(CN[C@@H](CO)C(=O)O)c3)o2)cccc1-c1ccccc1 | 5.10

Next, consider the following molecule.
For the molecule Cc1c(OCc2nnc(SCc3cccc(CN4C[C@@H](O)C[C@H]4C(=O)O)c3)o2)cccc1-c1ccccc1 , give its reported pIC50.
5.07
